Task for the reader: assign each of the following molecules its reported Ki.
- test.system: LRRK2 G2019S (Homo sapiens (Human), UniProt Q5S007, G2019S)
- Sequence (Q5S007 whole entry G2019S): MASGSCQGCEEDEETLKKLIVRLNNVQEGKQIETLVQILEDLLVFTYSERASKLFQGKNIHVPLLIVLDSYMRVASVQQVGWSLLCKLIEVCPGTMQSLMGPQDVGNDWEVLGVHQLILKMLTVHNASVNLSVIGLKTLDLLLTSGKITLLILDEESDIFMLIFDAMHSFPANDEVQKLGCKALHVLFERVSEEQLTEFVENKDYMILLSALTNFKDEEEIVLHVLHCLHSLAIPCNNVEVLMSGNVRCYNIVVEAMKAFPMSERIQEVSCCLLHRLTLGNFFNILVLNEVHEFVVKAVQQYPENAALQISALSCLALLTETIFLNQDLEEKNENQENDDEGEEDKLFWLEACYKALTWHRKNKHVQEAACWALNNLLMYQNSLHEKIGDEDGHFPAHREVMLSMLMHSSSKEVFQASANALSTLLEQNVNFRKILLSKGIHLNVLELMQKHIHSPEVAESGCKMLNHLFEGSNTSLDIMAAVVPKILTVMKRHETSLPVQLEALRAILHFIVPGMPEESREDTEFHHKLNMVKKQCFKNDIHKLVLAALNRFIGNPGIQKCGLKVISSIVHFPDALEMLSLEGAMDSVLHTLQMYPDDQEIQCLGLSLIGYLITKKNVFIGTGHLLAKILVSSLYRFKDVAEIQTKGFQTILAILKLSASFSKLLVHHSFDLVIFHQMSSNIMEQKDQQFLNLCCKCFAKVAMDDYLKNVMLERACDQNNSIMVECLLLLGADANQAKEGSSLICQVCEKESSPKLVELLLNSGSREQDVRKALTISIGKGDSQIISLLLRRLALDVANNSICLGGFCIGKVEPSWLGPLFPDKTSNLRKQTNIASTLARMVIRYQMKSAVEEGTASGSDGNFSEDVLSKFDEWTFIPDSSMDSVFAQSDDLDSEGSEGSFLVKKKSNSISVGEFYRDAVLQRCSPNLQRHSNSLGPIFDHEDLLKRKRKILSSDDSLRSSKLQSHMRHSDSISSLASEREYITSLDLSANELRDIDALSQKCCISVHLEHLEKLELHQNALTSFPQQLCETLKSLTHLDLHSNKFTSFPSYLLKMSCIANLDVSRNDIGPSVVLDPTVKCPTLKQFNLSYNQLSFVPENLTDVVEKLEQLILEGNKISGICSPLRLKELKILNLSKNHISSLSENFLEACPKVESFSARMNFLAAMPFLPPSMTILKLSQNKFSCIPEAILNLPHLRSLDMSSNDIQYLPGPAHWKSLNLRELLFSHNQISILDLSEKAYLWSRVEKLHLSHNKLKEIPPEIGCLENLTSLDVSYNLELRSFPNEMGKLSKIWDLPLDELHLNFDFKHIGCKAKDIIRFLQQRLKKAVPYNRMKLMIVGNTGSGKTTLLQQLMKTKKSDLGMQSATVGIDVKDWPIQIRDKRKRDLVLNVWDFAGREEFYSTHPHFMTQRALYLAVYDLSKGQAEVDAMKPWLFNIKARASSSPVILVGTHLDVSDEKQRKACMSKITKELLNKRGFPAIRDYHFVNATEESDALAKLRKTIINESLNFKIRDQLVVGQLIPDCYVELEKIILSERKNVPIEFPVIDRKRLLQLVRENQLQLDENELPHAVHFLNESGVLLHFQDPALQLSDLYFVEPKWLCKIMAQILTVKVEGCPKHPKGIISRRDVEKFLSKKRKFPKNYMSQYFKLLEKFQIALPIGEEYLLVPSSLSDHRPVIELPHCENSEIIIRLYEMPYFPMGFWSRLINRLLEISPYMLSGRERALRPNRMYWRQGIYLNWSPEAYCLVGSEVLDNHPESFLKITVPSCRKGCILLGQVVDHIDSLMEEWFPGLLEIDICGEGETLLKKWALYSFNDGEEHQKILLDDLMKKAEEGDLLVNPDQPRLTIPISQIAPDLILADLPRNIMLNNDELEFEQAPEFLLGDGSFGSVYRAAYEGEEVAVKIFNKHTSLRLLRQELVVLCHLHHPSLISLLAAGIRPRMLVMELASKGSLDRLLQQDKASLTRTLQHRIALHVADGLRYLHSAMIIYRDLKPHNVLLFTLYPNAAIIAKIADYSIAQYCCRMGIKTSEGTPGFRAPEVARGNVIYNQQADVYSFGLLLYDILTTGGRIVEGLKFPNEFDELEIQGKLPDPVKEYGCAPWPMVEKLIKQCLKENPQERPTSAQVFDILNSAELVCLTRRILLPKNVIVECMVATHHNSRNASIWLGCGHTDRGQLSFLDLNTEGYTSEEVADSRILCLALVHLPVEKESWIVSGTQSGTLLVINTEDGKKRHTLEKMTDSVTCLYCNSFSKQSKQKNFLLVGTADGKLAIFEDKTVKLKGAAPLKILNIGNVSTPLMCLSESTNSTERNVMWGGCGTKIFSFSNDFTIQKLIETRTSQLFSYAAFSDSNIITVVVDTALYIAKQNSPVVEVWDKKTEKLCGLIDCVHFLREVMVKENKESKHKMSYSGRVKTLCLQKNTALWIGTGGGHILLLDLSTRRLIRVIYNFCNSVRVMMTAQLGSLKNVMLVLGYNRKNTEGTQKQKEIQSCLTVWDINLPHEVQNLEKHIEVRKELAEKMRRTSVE
- measurement.notes: In Vitro LRRK2 Lanthascreen Binding Assay
A bare number is not enough; add the unit after it.

### Prompt Supply Ki value. Item: CNc1nc(Nc2cnn3c2C(C)OCC3(C)C)ncc1C(F)(F)F (single isomer, unassigned) [Example 12]
### Response 2.6 nM

### Prompt Could you please provide reported Ki for "CNc1nc(Nc2cnn3c2CCCC3)ncc1C(F)(F)F" ? Thanks!
### Response 7.5 nM

### Prompt Quickly give me recorded Ki for CNc1nc(Nc2cnn3c2C(C)OC(C)C3)ncc1C(F)(F)F (single isomer, unassigned) [Example 20]
### Response 5.7 nM

### Prompt Return reported Ki. Input molecule: "CCNc1nc(Nc2cnn3c2[C@H](C)N(C)CC3)ncc1C(F)(F)F"
### Response 9.5 nM

### Prompt Return value of Ki for input "C[C@H]1c2c(Nc3ncc(C(F)(F)F)c(NC4CC4)n3)cnn2CCN1C" , no commentary.
### Response 4.9 nM

### Prompt Let me know recorded Ki for CCNc1nc(Nc2cnn3c2C(C)OCC3)ncc1C(F)(F)F (single isomer, unassigned) [Example 14] , thanks.
### Response 1.2 nM

### Prompt Please supply the value of reported Ki for the item "CNc1nc(Nc2cnn3c2C2(COC2)OCC3)ncc1C(F)(F)F"
### Response 819 nM

### Prompt Answer with the recorded Ki of "CCNc1nc(Nc2cnn3c2COC(C)(C)C3)ncc1C(F)(F)F" only.
### Response 0.3 nM
